experiment: Antimycobacterial activity against Mycobacterium massiliense isolate CIP108297 after 8 days by resazurin microtiter based colorimetric assay; assay type: functional, Mycobacterium abscessus subsp. massiliense; settings: Mycobacteroides abscessus, isolate CIP108297, 192 h
Please assign Condition not met whenever MIC is at or above 8 µg/mL, and Condition met whenever it is below.

Answered cases to consult:
Ask: Hi there! Is MIC for CC1CCC(NC(=O)c2cc3ccccc3[nH]2)CC1 (mixture of isomers) below 8 µg/mL, do you know?
Result: Condition not met

Ask: Hi there! Is MIC for Cc1cc(C)c2cc(C(=O)NC3CCCCCC3)[nH]c2c1 below 8 µg/mL, do you know?
Result: Condition met

Ask: Hi there! Is MIC for Cc1cc(C)c2cc(C(=O)NCc3cccc(Cl)c3)[nH]c2c1 below 8 µg/mL, do you know?
Result: Condition not met

More entries:
Ask: Hi there! Is MIC for CCC12CC3CC(C1)CC(NC(=O)c1cc4ccccc4[nH]1)(C3)C2 below 8 µg/mL, do you know?
Result: Condition not met
